experiment: yeast display, Sf9 membrane polyspecificity reagent, FACS + sequencing; frameworks hold sequencing errors
metric: polyreactivity (PSR sort gate)

The following sequences have reported results that may help.
QVQLVESGGGLVQAGGSLRLSCAASGSIFDVNTMGWYRQAPGKERELVAAITNGDRTNYADSVKGRFTISRDNAKNTVYLQMNSLKPEDTAVYYCNTDQGTTSDYGYWGQGTQVTVSS    low polyreactivity
QVQLVESGGGLVQAGGSLRLSCASSGITFRYYAMGWYRQAPGKERELVAAITWSGGSTYYADSVKGRFTISRDNAKNTVYLQMNSLKPEDTAVYYCAADAYVLFYGDWYEFDYWGQGTQVTVSS    high polyreactivity
QVQLVESGGGLVQAGGSLRLSCAASGSTFPGYDMGWYRQAPGKERELVAAISWRDGRTFYADSVKGRFTISRDNAKNTVYLQMNSLKPEDSAVYYCAAAQRTAYLTYSYKYNYWGQCTQVTVSS    high polyreactivity
QVQLVESGGGLVQAGGSLRLSCADSGFIFPNYGMGSYRQAPGKERELVAYADSVKGRFTISRDNAKNTVYLQMNSLKPEDTAVYYCNADPPYTRWADYWHGGGYWGQGTQVTVSS    low polyreactivity
QVQLVESGGGLDQAGGSLRLICAASGFTYPIYAMGWYRQAPGKERELVAAITTRGGRTYYADSVKGRFTISRDNAKNTVYLQMNSLKAEDTAVYYCNALGYAYRLWFGYWGEGTQVTVSS    high polyreactivity
QVQLVESGGGLVQAGGSLRLSCAASGSIIYYYAMGWYRQAPGKERELVAAISASGGRTYYADSVKGRFTISRDNAKNTVYLQMNSLKPEDTAVYYCAKRGTLGSYYYWGQGTQVTVSS    high polyreactivity
QVQLVESGGGLVQAGGSLRLSCAASGSTFQENAMGWYRQAPGKEREFVAAISGSGGSTYYADSVKGRFTISRDNAKNTVYLQMNSLKPEDTAVYYCAARHYFRSRRRYDYWGQGTQVTVSS    low polyreactivity
QVQLVESGAGLVQAGGSLRLSCAASGIIFSDNAMGWYRQAPGKEMELVAAIDWSGGSTYYADSVKGRFTISRDNAKNTVYLHMNSLKPEDTAVDYCAAEYRDYVPVNVTGDYWGQGTQVTVSS    low polyreactivity
QVQLVESVGGLVQAGGSLRLRCAASGRTFGVYAMGWYRQAAGKESEFVATITSRGGRTYSADSVKGRFTISRDNAKKTVYLQMNSLIPEDTAVYYCAAQVGRNGVSEYDYWGQGTQVTVSS    high polyreactivity
QVQLVESGGGLVQAGGSLRLSCADSGRTFWSNSMGWYRQAPGKERELVARIDSTYYADSVKGRFTISRDNAKNTVYLQMNSLKPEDTAFYYCNADTIYYAGDFRYDYWGQGTQVTVSS    low polyreactivity

Consider the sequence QVQLVESGGGLVQAGGSLRLSCAASGGIFIGYAMGWYRPAPGKERELVARIRSSGGTTYYADSVKGRFTISRDNAKNTVYLQMNSLKPEDTAVYYCAKRTSSSWAYGPYYYWGQGTQVTVSS . State its measured polyreactivity (PSR sort gate).
high polyreactivity

Consider the sequence QVKLVESGGGLDQAGGSLRLSCAASGTIFRKNAMGWYRQAPGKERELVAAMTGTGRTTYADSVKGRFTISRDNAKNTFYLQMNSLKPEDTAVYYCAADVNYYQHRLYYWGQGTQVTVSS . State its measured polyreactivity (PSR sort gate).
low polyreactivity

Consider the sequence QVQLVESGGGLVQAGCSLRLSCAASGRIFHLYAMGWYTQAPGKERELVAAITGRGGSTYYADSVKGRFTISRDNAKNTVYLQINCLKPEDTAVYYCASYEFGFLRYYSGRSYYYWGQGTQVTVSS . State its measured polyreactivity (PSR sort gate).
high polyreactivity

Consider the sequence QVQLVESGGGLVQAGGSLRLSCAASGRIFILYAMGWYRQAPGKERELVATITKSGGNTYYADSVKGRFTISRDNAKNTVYLQMNSLKPEDTAVYYCAAQGRDSTPHGYWGQGTQVTVSS . State its measured polyreactivity (PSR sort gate).
high polyreactivity

Consider the sequence QVQLVESGGGLVQAGGSLRLSCAASGRIFFKYAMGWYRQAPGKERELVAAISKTGGRTYYADSVKGRFTISRDNAKNTVYLQMNSLKPEDTAVYYCRGYTSFGYDYWGQGTQVTVSS . State its measured polyreactivity (PSR sort gate).
high polyreactivity

Consider the sequence QVQLVESGGGLVQAGGSLRLSCAASGRIFYSIAMGWYRQAPGKERELVAAISRSGVRTYYADSVKGRFTISRDNAKNTVYLQMNSLKPEDTAVYYCAAVIYGTTPQDEYDYWGQGTQVTVSS . State its measured polyreactivity (PSR sort gate).
low polyreactivity

Consider the sequence QVQLVESGGGLVQAGGSLRLTCAASGLILVPNTMGWYRQAPGTERELVAAISYSGGGTYYADSVKGRFTISRDNAKNTVYLQMNSLKPEDTAVYYCAAYVKRESAPYGYWGQGTQVTVSS . State its measured polyreactivity (PSR sort gate).
low polyreactivity

Consider the sequence QVQLVESAGGLVKEGGSLRLSCAASGRTFGVNAMGRYRQAPGKERELVAAITWSGDSTYYADSVKGRFTISRDNAKNTVYLQMNSLKPEDTAVYYCAKKSSLFKHVVRYAYWGQGNQVTVSS . State its measured polyreactivity (PSR sort gate).
low polyreactivity

Consider the sequence QVQLVESGGGLVQAGGSLGLSCAASGRTFGFYAMGWYRQATGKQRELVAAITSTGGSTYYADSVKGRFTISRDNAKNTVYLQMNSLKPEDNAVYYCAADSGTKRYYYWGQGTPVTVSS . State its measured polyreactivity (PSR sort gate).
high polyreactivity

Consider the sequence QVQLVESGGGLVQAGGSLRLSCAASGITFTSYAMGWYRQAPGKERELVAAISAGGGRTYYADSVKGRFTISRDNAKNTVYLQMNSLKPEDTAVYYCAVKYPELRTWGYYYWGQGTQVTVSS . State its measured polyreactivity (PSR sort gate).
high polyreactivity

Consider the sequence QVQLVESGGGLVQAGGSLRLSCAASGIIFFIYAMGWYRQAPGKERELVATISWTGGSTYYADSVKGRFTISRDNAKNTVYLQMNSLKPEDTAVYYCNADEWRWDEIIPYAVDYWGQGTQVTVSS . State its measured polyreactivity (PSR sort gate).
low polyreactivity
